system: HSkMC; test: cytotoxicity call (relative viability < 0.9); details: 10 µM
Among all 39,000 compounds or so, about 1,500 (3.8%) were called active. For the sample, actives were picked, then their nearest neighbours and some compounds at random.
A correct response names exactly one class from 1 for active, 0 for inactive

Exercise: I would be grateful if you could indicate the recorded call for `C[C@H](O)C(=O)Nc1c(I)c(C(=O)NC(CO)CO)c(I)c(C(=O)NC(CO)CO)c1I` .
Solution: 0

Exercise: What call does the record list for `CCNC(=O)C[C@H]1C=C[C@@H](NC(=O)C2CC2)[C@H](CO)O1` ?
Solution: 0

Exercise: Just curious, what result did `Cc1ccc(S(=O)(=O)N(C)C[C@@H]2OCCCC[C@H](C)Oc3ccc(NC(=O)Nc4c(C)noc4C)cc3C(=O)N([C@H](C)CO)C[C@H]2C)cc1` get here?
Solution: 0

Exercise: Hi, sorry to bother you, what did the test record for `COc1ccc(NC(=O)Nc2ccc3c(c2)C(=O)N([C@H](C)CO)C[C@H](C)[C@@H](CN(C)Cc2ccc(C(F)(F)F)cc2)OCCCC[C@H](C)O3)cc1` ?
Solution: 0

Exercise: What did this assay record as the result for `C[C@H]1CN([C@@H](C)CO)S(=O)(=O)c2ccc(Br)cc2O[C@@H]1CN(C)Cc1cccc(F)c1` ?
Solution: 0

Exercise: Could you check what this test reported for `COc1ccc2c3c([nH]c2c1)[C@@H](CO)N(C[C@]13CN(CC2CCCCC2)C1)C(=O)Nc1cccc(c1)F` ?
Solution: 1

Exercise: In this assay, the call recorded for `COc1ccc(C#Cc2cnc3c(c2)C(=O)N([C@H](C)CO)C[C@@H](C)[C@@H](CN(C)C(=O)CC2CC2)O3)cc1` was what?
Solution: 0

Exercise: Any idea what this test logged for `C[C@@H]1CN([C@@H](C)CO)S(=O)(=O)c2ccc(-c3cncnc3)cc2O[C@@H]1CN(C)C(=O)Cc1cccnc1` ?
Solution: 0

Exercise: Short answer needed: outcome of this test for `COc1ccc2c3c(n(c2c1)C)[C@H](CO)N(CC1CCOCC1)C[C@]13CCN(CC1)C(=O)c1cnccn1` ?
Solution: 0

Exercise: GET /call?item= `COC(=O)C1=CO[C@@H](O[C@@H]2O[C@H](CO)[C@@H](O)[C@H](O)[C@H]2O)/C(=C\CO)[C@@H]1CC(=O)OCCc1ccc(O)cc1` returns the recorded outcome of this test.
Solution: 0

Exercise: For this compound, state the assay outcome: `CC(C)c1nc(/N=C/N(C)C)nc(=O)n1C`
Solution: 0

Exercise: How was CC(C)(C(=O)O)c1ccc(C(O)CCCN2CCC(C(O)(c3ccccc3)c3ccccc3)CC2)cc1.Cl (stereo not given) classified in this test?
Solution: 0

Exercise: Can you look up the reported call for `COc1ccc2c3c([nH]c2c1)[C@@H](CO)N(C[C@]13CCN(CC1)C(=O)Nc1cccc(c1)F)C(=O)c1ccc(cc1)F` for me?
Solution: 0

Exercise: Short answer needed: outcome of this test for CC(=O)OC1C(=O)C2(C)C(O)CC3OCC3(OC(C)=O)C2C(OC(=O)c2ccccc2)C2(O)CC(OC(=O)C(O)C(NC(=O)c3ccccc3)c3ccccc3)C(C)=C1C2(C)C (stereo not given) ?
Solution: 0

Exercise: Please state the recorded outcome for this compound: `COc1ccc(CN(C)C[C@@H]2OCCCC[C@@H](C)Oc3ccc(NC(=O)Nc4ccc(C(F)(F)F)cc4)cc3C(=O)N([C@H](C)CO)C[C@H]2C)cc1`
Solution: 1

Exercise: For `COc1ccc(NC(=O)Nc2ccc3c(c2)C(=O)N([C@@H](C)CO)C[C@@H](C)[C@@H](CN(C)Cc2ccc(C(F)(F)F)cc2)OCCCC[C@H](C)O3)cc1` , which call appears in the assay record?
Solution: 0

Exercise: Status in this test for `C[C@@H]1CN([C@@H](C)CO)C(=O)Cc2cc(NS(=O)(=O)c3ccc(F)cc3)ccc2O[C@H]1CN(C)S(=O)(=O)c1cn(C)cn1` ?
Solution: 0

Exercise: Recorded test call requested for `CNC(=O)C[C@@H]1CC[C@@H]2[C@H](COC[C@H](O)CN2C(=O)c2ccccn2)O1`
Solution: 0

Exercise: Short answer needed: outcome of this test for `C[C@@H]1CN([C@H](C)CO)C(=O)Cc2cc(NS(=O)(=O)c3ccc(Cl)cc3)ccc2O[C@@H]1CN(C)C(=O)Nc1cccc2ccccc12` ?
Solution: 0

Exercise: Kindly provide the recorded test outcome for the following compound: `CCN(CCO)C(=O)C1CN(C(C)=O)C1`
Solution: 0

Exercise: Name the outcome recorded for `O=C1[C@@H]2[C@@H](C(=O)N1CCO)[C@@H]1C=C[C@@H]2C1` in the assay.
Solution: 0

Exercise: Please let me know the test result on file for `C=CC(=O)Nc1cccc(Nc2nc(Nc3ccc(NC4CN(CCF)C4)cc3OC)ncc2C(F)(F)F)c1` .
Solution: 1

Exercise: Fill in: this test's call for `COc1ccc(S(=O)(=O)N2CC(NC(=O)Cn3ccc(=O)n(C)c3=O)C2)cc1` is ___
Solution: 0

Exercise: For `C[C@@H]1CN([C@@H](C)CO)C(=O)c2cc(NC(=O)Nc3ccc4c(c3)OCO4)ccc2O[C@@H](C)CCCCO[C@H]1CN(C)C(=O)c1ccccc1` , what call appears in the results of this test?
Solution: 0

Exercise: Hi, do you know how `C[C@H]1CCCCO[C@H](CN(C)Cc2ccc(C(F)(F)F)cc2)[C@@H](C)CN([C@@H](C)CO)C(=O)c2cc(N(C)C)ccc2O1` came out in this test?
Solution: 0

Exercise: Recorded test outcome, item `COc1ccc(NC(=O)Nc2ccc3c(c2)C(=O)N([C@H](C)CO)C[C@@H](C)[C@H](CN(C)Cc2ccc(C(F)(F)F)cc2)OCCCC[C@@H](C)O3)cc1`
Solution: 0

Exercise: In this assay, the call recorded for `COc1ccc(NC(=O)Nc2ccc3c(c2)C(=O)N([C@@H](C)CO)C[C@H](C)[C@@H](CN(C)Cc2ccc(C(F)(F)F)cc2)OCCCC[C@@H](C)O3)cc1` was what?
Solution: 0

Exercise: Hi, sorry to bother you, what did the test record for `COc1ccc(CN(C)C[C@H]2OCCCC[C@H](C)Oc3ccc(NC(=O)Nc4ccc(C(F)(F)F)cc4)cc3C(=O)N([C@@H](C)CO)C[C@@H]2C)cc1` ?
Solution: 1

Exercise: # lookup: test call for `COC[C@@H](C)NC(=O)C1CN(C(C)=O)C1`
Solution: 0

Exercise: Tell me the assay call for `CO[C@@H]1CN(C)C(=O)c2cc(NC(=O)NC(C)C)ccc2OC[C@H](C)N(Cc2ccc(-c3ccccn3)cc2)C[C@@H]1C` please.
Solution: 0

* * *

tested on: HSkMC; assay: cytotoxicity call (relative viability < 0.9); conditions: 10 µM
Screen size: about 39,000 compounds; about 1,500 (3.8%) were called active. Many of the other results were omitted from the sample, so actives are more common in it than they were.
Parameter measured: cytotoxicity call

# example entries with known answers
| Compound | cytotoxicity call |
| --- | --- |
| COCCOC(=O)C1=C(C)NC(C)=C(C(=O)OC(C)C)C1c1cccc([N+](=O)[O-])c1 (stereo not given) | inactive |
| COc1ccc(CN(C)C[C@H]2Oc3ccc(NS(C)(=O)=O)cc3C(=O)N([C@@H](C)CO)C[C@H]2C)cc1 | inactive |
| COC(=O)C1=C(C)NC(C)=C(C(=O)OCCCN2CCC(c3ccccc3)(c3ccccc3)CC2)[C@H]1c1cccc([N+](=O)[O-])c1 | active |
| CCCN1C(C)=C(C(=O)OC)[C@@H](c2cccc([N+](=O)[O-])c2)C(C(=O)ON2CCC(c3ccccc3)(c3ccccc3)CC2)=C1C | active |
| C[C@@H]1CN([C@H](C)CO)C(=O)c2cccc(NC(=O)c3ccc(-c4nccs4)cc3)c2O[C@H]1CN(C)Cc1ccc(Oc2ccccc2)cc1 | inactive |
| CCC(=O)N1CCN(c2ccc(-n3c(=O)ccc4cnc5ccc(-c6cnc7ccccc7c6)cc5c43)cc2C(F)(F)F)CC1 | active |

Exercise: // lookup cytotoxicity call for COC(=O)C1=C(C)NC(C)=C(C(=O)OCCN2CCN(C(c3ccccc3)c3ccccc3)CC2)C1c1cccc([N+](=O)[O-])c1 (stereo not given)
Solution: inactive

Exercise: # input compound: `COc1ccc(CN(C)C[C@H]2Oc3c(NC(=O)c4ccc(-c5nccs5)cc4)cccc3C(=O)N([C@@H](C)CO)C[C@@H]2C)cc1` ; wanted: its cytotoxicity call
Solution: inactive

* * *

system: HSkMC (human skeletal muscle cells); assay: cytotoxicity call (relative viability < 0.9); settings: 10 µM
About 1,500 (3.8%) of roughly 39,000 compounds were called active. This is one part of a sample in which actives are shown more often than they occur.
Respond with a class label; see t = active, f = inactive

Exercise: What call does the record list for `C[C@@H]1CN([C@H](C)CO)C(=O)c2cccc(NC(=O)CCCCCC(=O)Nc3ccccc3N)c2O[C@H]1CN(C)C(=O)Nc1ccccc1` ?
Solution: f

Exercise: Dear colleague, could you share the recorded outcome for `O=C(C[C@H]1CC[C@H]2[C@@H](COC[C@@H](O)CN2C(=O)c2ccc3c(c2)OCO3)O1)NCCN1CCCC1` when you have a moment?
Solution: f

Exercise: Returns: the outcome recorded for `C[C@H]1CN([C@@H](C)CO)C(=O)Cc2cc(NC(=O)CCC(F)(F)F)ccc2O[C@H]1CN(C)Cc1ccc(-c2ccccc2)cc1` in this assay.
Solution: f

Exercise: // outcome(item) with item = COc1ccc2cc(C(C)C(=O)O)ccc2c1 (stereo not given)
Solution: f

Exercise: Dear all, I need the recorded test outcome for `C[C@@H]1CCCCO[C@H](CN(C)C(=O)Nc2ccc3c(c2)OCO3)[C@H](C)CN([C@@H](C)CO)C(=O)c2cc(NC(=O)Nc3ccc(F)cc3)ccc2O1` , thank you.
Solution: f

Exercise: Please share the test call associated with `Cc1coc(C)c1C(=O)O[C@@H]1O[C@@H](C)[C@H](O)[C@@H](O)[C@H]1O` .
Solution: t

Exercise: What was the test verdict on `C[C@@H]1CN([C@@H](C)CO)C(=O)Cc2cc(NC(=O)CCC(F)(F)F)ccc2O[C@H]1CN(C)Cc1ccc(-c2ccccc2)cc1` ?
Solution: t

Exercise: Dear all, I need the recorded test outcome for `COc1ccc(C(=O)NCC(=O)O)cc1` , thank you.
Solution: f

Exercise: Short answer needed: outcome of this test for `C[C@@H]1CN([C@H](C)CO)C(=O)c2cc(NC(=O)Cn3cnnn3)ccc2O[C@H]1CN(C)C(=O)Nc1ccc2c(c1)OCO2` ?
Solution: f

Exercise: Any idea what this test logged for `O=C1C=CC(O)(/C=C/C(=O)O[C@@H]2[C@@H](O)[C@H](Oc3ccc(O)cc3)O[C@H](CO)[C@H]2O)C=C1` ?
Solution: f

Exercise: Look up the recorded call for `C[C@@H]1CN([C@H](C)CO)C(=O)Cc2cc(NC(=O)CCC(F)(F)F)ccc2O[C@H]1CN(C)Cc1ccc(Cl)c(Cl)c1` in this test.
Solution: f

Exercise: Which outcome was assigned to `C[C@H](CO)N1C[C@H](C)[C@@H](CN(C)Cc2ccc(Cl)c(Cl)c2)Oc2ccc(NC(=O)CCC(F)(F)F)cc2CC1=O` in this test?
Solution: f

Exercise: Given `COc1ccc2cc(-c3cc(-c4cc(Cl)cc(Cl)c4)nn3[C@@H](C)c3ccc(C(=O)NCCC(=O)O)cc3)ccc2c1` , state the outcome it received in this test.
Solution: t

Exercise: Returns: the outcome recorded for `C[C@@H]1CN([C@@H](C)CO)C(=O)Cc2cc(NC(=O)CCC(F)(F)F)ccc2O[C@H]1CN(C)Cc1ccc(Cl)c(Cl)c1` in this assay.
Solution: t

Exercise: What was the test verdict on `C[C@@H]1CCCCO[C@@H](CN(C)C(=O)C2CCCCC2)[C@H](C)CN([C@@H](C)CO)C(=O)c2cc(NC(=O)Nc3ccccc3)ccc2O1` ?
Solution: f

Hey, just so you know, these numbers are from the antibiotic and cytotoxicity screens of Wong et al. (2023).
